target_of_assay: aggregated recombinant human-microtubule associated protein Tau (Homo sapiens)
Construct: Recombinant human-microtubule associated protein Tau purified from E. coli is aggregated at a concentration of 5 μM with Arachidonic Acid (100 μM) in Tris 10 mM pH8, 24 h at 37° C
Sequence (P10636 whole entry): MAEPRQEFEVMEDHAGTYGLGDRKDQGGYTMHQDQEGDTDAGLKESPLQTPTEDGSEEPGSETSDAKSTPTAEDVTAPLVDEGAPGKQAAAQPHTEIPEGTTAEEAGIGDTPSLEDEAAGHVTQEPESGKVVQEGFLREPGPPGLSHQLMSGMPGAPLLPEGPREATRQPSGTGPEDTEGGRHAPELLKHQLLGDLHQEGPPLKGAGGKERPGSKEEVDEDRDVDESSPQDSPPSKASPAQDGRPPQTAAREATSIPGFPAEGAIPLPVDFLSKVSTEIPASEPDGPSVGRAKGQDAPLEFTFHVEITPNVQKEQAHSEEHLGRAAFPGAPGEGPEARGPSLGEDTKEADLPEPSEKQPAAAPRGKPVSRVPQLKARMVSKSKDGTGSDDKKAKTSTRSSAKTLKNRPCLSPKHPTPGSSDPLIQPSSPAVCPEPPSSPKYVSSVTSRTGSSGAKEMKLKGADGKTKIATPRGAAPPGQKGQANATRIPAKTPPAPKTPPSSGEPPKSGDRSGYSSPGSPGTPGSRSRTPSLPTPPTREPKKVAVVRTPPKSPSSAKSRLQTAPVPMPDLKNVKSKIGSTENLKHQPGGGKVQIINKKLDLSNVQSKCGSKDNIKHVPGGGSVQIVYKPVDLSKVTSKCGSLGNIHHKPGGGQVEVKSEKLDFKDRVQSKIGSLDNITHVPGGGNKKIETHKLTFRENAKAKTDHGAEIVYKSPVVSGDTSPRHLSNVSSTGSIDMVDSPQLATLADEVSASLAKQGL
protocol: Thiazin-red R displacement fluorescence assay on aggregated Tau
test_settings: displacement of Thiazin-red R from aggregated Tau; compound 0.3 nM to 10000 nM; 30 min room temperature; Ex 531 nm/Em 595 nm
quantity_kind: pIC50
Note on pIC50: it is the negative log10 of concentration, concentration in mol/L.

COc1cc(/C=c2\sc3nc(-c4ccc(N5CCCC5)cc4)cn3c2=O)cc(Cl)c1O [Example 90] :: 7.43

Enquiry: What is its pIC50 for aggregated recombinant human-microtubule associated protein Tau (Homo sapiens)? Entry: COc1ccccc1-c1cn2c(=O)/c(=C/c3cc(Cl)c(O)c(OC)c3)sc2n1 [Example 55]
Return: 6.99

Enquiry: Similarly, CCCOc1cc(/C=c2\sc3nc(-c4cccc(OC(F)(F)F)c4)cn3c2=O)cc(OC)c1O [Example 33] ?
Return: 7.60

###

target_of_assay: aggregated recombinant human-microtubule associated protein Tau (Homo sapiens)
Construct: Recombinant human-microtubule associated protein Tau purified from E. coli is aggregated at a concentration of 5 μM with Arachidonic Acid (100 μM) in Tris 10 mM pH8, 24 h at 37° C
protocol: Thiazin-red R displacement fluorescence assay on aggregated Tau
test_settings: displacement of Thiazin-red R from aggregated Tau; compound 0.3 nM to 10000 nM; 30 min room temperature; Ex 531 nm/Em 595 nm
Could you please mark Criterion met for values of IC50 below 0.02 µM and Criterion not met for values at or above it?

Use these answered entries as a reference point.
CNC(=O)c1ccc(-c2cn3c(=O)/c(=C/c4cc(Cl)c(O)c(OC)c4)sc3n2)cc1 :: Criterion met
COc1cc(/C=c2\sc3nc(-c4cc(C)nc(C)c4)cn3c2=O)cc(OC)c1O :: Criterion met
COc1cc(/C=c2\sc3nc(-c4ccccc4OCCF)cn3c2=O)cc(Cl)c1O :: Criterion not met
COc1cc(/C=c2\sc3nc(-c4ccc(Cl)cc4)cn3c2=O)cc(OC)c1O :: Criterion met
COc1cc(/C=c2\sc3nc(-c4cccc(C(N)=O)c4)cn3c2=O)cc(F)c1O :: Criterion met

Now take the following molecule into account.
Enquiry: Strictly below 0.02 µM in IC50? `COc1cc(/C=c2\sc3nc(-c4ccc(Cl)cc4)cn3c2=O)cc(OC(C)C)c1O`
Return: Criterion met

###

target_of_assay: aggregated recombinant human-microtubule associated protein Tau (Homo sapiens)
Construct: Recombinant human-microtubule associated protein Tau purified from E. coli is aggregated at a concentration of 5 μM with Arachidonic Acid (100 μM) in Tris 10 mM pH8, 24 h at 37° C
protocol: Thiazin-red R displacement fluorescence assay on aggregated Tau
test_settings: displacement of Thiazin-red R from aggregated Tau; compound 0.3 nM to 10000 nM; 30 min room temperature; Ex 531 nm/Em 595 nm
pIC50 for assorted compounds
Note on pIC50: it is the negative log10 of concentration, concentration in mol/L.

CCCOc1cc(/C=c2\sc3nc(-c4ccccn4)cn3c2=O)cc(Cl)c1O :: 7.52

Enquiry: Need pIC50, item `COc1cc(/C=c2\sc3nc(-c4cccc(C#N)c4)cn3c2=O)cc(OC)c1O`
Return: 8.15

Just for reference, patent US20150157739A1 is where these values come from.
